# Test system: KB-3-1
# protocol_notes: Cytotoxic Profiling of Annotated Libraries Using Quantitative High-Throughput Screening (AID 1296008); further: nearly all actives have a fitted effect of over 60% in size; on max response: on the % scale 0 is the no-effect control and ±100 the full control effect
# assay_setup: Five cell lines viability, CellTiter-Glo ATP luminescence, 48-72 h; stronger effect = lower value
Results filed as inconclusive are left out.
In this section, each of the compounds is paired with its reported max response.
Give the number; % is assumed, so skip it.

Record C[C@H]1[C@H](C)CC[C@]2(C(=O)O)CC[C@]3(C)C(=CCC4[C@@]5(C)C[C@@H](O)[C@H](O)C(C)(C)C5CC[C@]43C)[C@H]12 (stereo not given in full) . Reported max response: -2.55

Record C[C@@H]1O[C@@H](O[C@H]2[C@H](O)[C@@H](O[C@@H]3O[C@H](CO)[C@H](O)[C@H](O)[C@H]3O)[C@H](O[C@H]3CC[C@@]4(C)C(CC[C@]5(C)C4CC=C4[C@@H]6CC(C)(C)CC[C@]6(C(=O)O[C@@H]6O[C@H](CO)[C@@H](O)[C@H](O)[C@H]6O)CC[C@]45C)C3(C)C)O[C@@H]2C(=O)O)[C@H](O)[C@H](O)[C@H]1O (stereo not given in full) . Reported max response: 9.11

Record C=C1C2CCC3C(CCC4[C@@]3(C)CCC[C@@]4(C)C(=O)O)(C2)[C@@H]1OC(=O)/C(C)=C\C (stereo not given in full) . Reported max response: 2.48

Record CC(O)/C=C/C1(O)C(C)C(O)C(O[C@@H]2O[C@H](CO)[C@@H](O)[C@H](O)[C@H]2O)CC1(C)C (stereo not given in full) . Reported max response: 0.447

Record O=C(O)C[C@H]1CCC(=O)[C@@H]1C/C=C\CCO . Reported max response: 0.282

Record CC(C)C(NC(=O)c1ccc(O)cc1)C(=O)N1CCCC1C(=O)Nc1c(O)cccc1C(=O)O (stereo not given) . Reported max response: 5.36

More entries:
Record NCCCCN(Cc1nc2ccccc2[nH]1)[C@H]1CCCc2cccnc21 . Reported max response: 1.94

Record CC(C)(O)[C@@H]1CC[C@]2(CO)[C@@H](O)CC[C@](C)(O)[C@H]2[C@@H]1O[C@@H]1O[C@H](CO)[C@@H](O)[C@H](O)[C@H]1O . Reported max response: 8.79

Record Cc1cn(-c2cc(NC(=O)c3ccc(C)c(Nc4nccc(-c5cnccn5)n4)c3)cc(C(F)(F)F)c2)cn1 . Reported max response: -2.9

Record COc1cc(-c2ccc(O)cc2)c(OC)c(O)c1C1=CC(=O)OC1CC(=O)O (stereo not given) . Reported max response: -5.37

Record COc1ccc(-n2c(SCC#N)nc3sc4c(c3c2=O)CCCC4)cc1 . Reported max response: 9.32

Record CC1CC(=O)C2C(O)(C1)CC(O)C13OC1c1c(O)cccc1C(=O)C23O (stereo not given) . Reported max response: 3.15

Record CC(=O)OC1CCC2(C)C(CCC3(C)C2CC=C2C4CC(C)(C)CCC4(C)CCC23C)C1(C)C(=O)O (stereo not given) . Reported max response: 3

Record CC[C@H]1OC(=O)[C@H](C)C(=O)[C@H](C)[C@@H](OC2O[C@H](C)C[C@H](N(C)C)[C@H]2O)[C@@H](C)C[C@@H](C)C(=O)/C=C/[C@]1(C)O (stereo not given in full) . Reported max response: 7.73

Record CC1C(O)C(O)C2C(C(=O)OCCc3ccc(O)cc3)=COC(O[C@@H]3O[C@H](CO)[C@@H](O)[C@H](O)[C@H]3O)C12 (stereo not given in full) . Reported max response: -9.14

Record O=C(O)c1ccnc2cc(-c3nc4ccccc4n3CCN3CCCCC3)sc12 . Reported max response: 2.06

Record CC1(C(=O)O)CCCC2(C)C3CCC4CC3(CCC12)CC4C(=O)O (stereo not given) . Reported max response: 6.21

Record CC(C)=CC[C@H]1O[C@]2(O)C([C@H]3CCC4[C@@]5(C)CC[C@H](O[C@@H]6O[C@H](CO)[C@H](O)[C@H](O[C@@H]7O[C@H](CO)[C@@H](O)[C@H](O)[C@H]7O)[C@H]6O[C@@H]6O[C@@H](C)[C@H](O)[C@@H](O)[C@H]6O)C(C)(C)C5CC[C@@]4(C)[C@]3(C)[C@H]2O)[C@@]1(C)O (stereo not given in full) . Reported max response: 9.9

Record CC(=O)C1CCC(=O)N1Cc1ccccc1 (stereo not given) . Reported max response: -4.66

Record Cc1ccc(-c2c(-c3nn(C)c4ncnc(N5CC[C@H](N6CCCCC6)C5)c34)cnn2C)cc1 . Reported max response: -0.872

* * *

# System: Zika virus NS2B-NS3 protease (linked construct)
# protocol_notes: Primary screen NINDS Rhodamine qHTS for Zika virus inhibitors (AID 1347160); further: nearly all actives have a fitted effect of over 55% in size
# assay_setup: purified NS2B-NS3 protease, Rhodamine110 substrate fluorescence; series mostly up to 33.1 µM
Results filed as inconclusive are left out. Active and inactive are the calls of the source. Calls come from the whole dose curve; as a rule, active = well fitted inhibition curve with a large enough effect; inconclusive = small, poorly fitted or top-dose-only effect; inactive = no such curve, though single readings can be large or run the other way. Where a SMILES comes first, the peptide text is derived from it.
The categories you may choose from are active, inactive

Take a look at these entries with their results.
Problem: How was C[C@H]1CCN2C[C@]34C[C@@]5(C(=O)Nc6c5ccc5c6OC=CC(C)(C)O5)C(C)(C)C3C[C@]12C(=O)N4C (stereo not given in full) classified in this test?
Result: inactive

Problem: How was O=C(O)C(Cc1ccccc1)NC(=O)C1CCCN1 (stereo not drawn) (H-Pro-Phe-OH; configuration not given here) classified in this test?
Result: inactive

Problem: How was C[C@@]1(C(=O)O)CCC[C@@]2(C)C3=CC[C@H]4C[C@@]3(CC[C@H]12)CC4(O)CO (stereo not given in full) classified in this test?
Result: inactive

Problem: How was C/C=C(\C)C(=O)OCC1OC(OC2OC(CO)C(O)C(O)C2O)C(O)C(O)C1O (stereo not given) classified in this test?
Result: inactive

Problem: How was O=C(O)c1ccc(NC(=O)[C@H](CC2CCCC2)n2cnc(C(F)(F)F)c2)nc1 classified in this test?
Result: inactive

Problem: How was COc1ccc(NC(=O)c2ccc(-c3ccc(C(N)=O)cc3C)cc2)cc1N1CCN(C)CC1 classified in this test?
Result: inactive

Problem: How was C/C=C/C=C/C(O)=C1/C(=O)[C@]2(C)C(=O)[C@@](C)(O)[C@H]1[C@H]([C@@]1(C)OC(=O)C(C)=C1O)[C@H]2C(=O)CC/C=C/C classified in this test?
Result: inactive

Problem: How was COc1cc(O)cc2c1C(=O)OC(C)C2 (stereo not given) classified in this test?
Result: inactive

More entries:
Problem: How was O=C(/C=C/c1ccc(O)cc1)OC[C@H]1O[C@@H](O/C(=C\c2ccccc2)C(=O)O)[C@H](O)[C@@H](O)[C@@H]1O classified in this test?
Result: inactive

* * *

# Test system: HACAT
# protocol_notes: qHTS assay to identify novel small-molecules to repurpose for Merkel cell carcinoma treatment (AID 1296009); further: nearly all actives have a fitted effect of over 60% in size
# assay_setup: MCC and control cell lines, CellTiter-Glo viability, 72 h; at 44.8 µM (top of the series) unless noted
Inconclusive results are not listed. Activity calls are given as the source filed them. Calls come from the whole dose curve; as a rule, active = well fitted inhibition curve with a large enough effect; inconclusive = small, poorly fitted or top-dose-only effect; inactive = flat fitted curve, though single readings scatter.
assay_metric: outcome

Record CC(=O)OC/C(=C/C(=O)O)CC[C@@H]1C(CO)=CC[C@@H]2C(C)(C)CCC[C@@]12C . Reported outcome: inactive

Record COC(=O)[C@H](c1ccccc1Cl)N1CCC2SC(=O)C=C2C1 (stereo not given in full) . Reported outcome: inactive

Record C=C1CCC2[C@](C)(CO)CCC[C@@]2(C)[C@@H]1CCC1=CCOC1=O (stereo not given in full) . Reported outcome: inactive

Record O=C(O)c1cccc(CN2C(=O)/C(=C(\c3ccccc3)c3ccc(Cl)cc3)c3ccccc32)c1 . Reported outcome: inactive

* * *

# Test system: HaCat
# protocol_notes: Cytotoxic Profiling of Annotated Libraries Using Quantitative High-Throughput Screening (AID 1296008); further: nearly all actives have a fitted effect of over 60% in size
# assay_setup: Five cell lines viability, CellTiter-Glo ATP luminescence, 48-72 h
Inconclusive results are not listed. Activity calls are given as the source filed them. The call rests on the fitted dose curve; in most records, active means well fitted inhibition curve with a large enough effect; inconclusive means small, poorly fitted or top-dose-only effect; inactive means flat fitted curve, though single readings scatter.
assay_metric: outcome

Reference set (10 entries):
Test item C[C@@H]1O[C@@H](O[C@H]2[C@H](O[C@H]3[C@H](O[C@H]4CC[C@@]5(C)C(CC[C@]6(C)C5CC=C5[C@@H]7CC(C)(C)C[C@@H](O)[C@]7(C)CC[C@]56C)[C@@]4(C)CO)O[C@H](C(=O)O)[C@@H](O)[C@@H]3O)O[C@H](C(=O)O)[C@H](O)[C@@H]2O)[C@H](O)[C@H](O)[C@H]1O (stereo partly specified) ; HaCat; reported outcome was inactive

Test item COc1cc(O)cc(C)c1C(=O)O[C@H]1[C@@H](O)[C@@H](n2ccc(=O)[nH]c2=O)O[C@@H]1CO ; HaCat; reported outcome was inactive

Test item O=C(O)c1ccncc1Nc1nn(CCN2CCC(F)(F)CC2)c2ccc(F)cc12 ; HaCat; reported outcome was inactive

Test item C=C1[C@@H]2CC[C@@]3(C)[C@H](c4ccoc4)OC(=O)C[C@]13O[C@H]1CC(=O)C(C)(C)[C@H](C(O)C(=O)OC)[C@]12C (stereo partly specified) ; HaCat; reported outcome was inactive

Test item Cc1noc2c1-c1ccccc1C(c1ccc(Cl)cc1)=N[C@H]2CC(N)=O ; HaCat; reported outcome was inactive

Test item COc1cnc(-n2cnc(C)n2)c2[nH]cc(C(=O)C(=O)N3CCN(C(=O)c4ccccc4)CC3)c12 ; HaCat; reported outcome was inactive

Test item CC1CC(=O)C2=C(O1)OC1(C)CCC3C(C)(C)C4OC4C(=O)C3(C)C1C2 (stereo unspecified) ; HaCat; reported outcome was inactive

Test item CC1(C)CC=C(c2cnc3ccccc3c2)c2cc(C(=O)Nc3ccc(C(=O)O)cc3)ccc21 ; HaCat; reported outcome was inactive

Test item C=C(C)[C@@H]1CC[C@]2(C(=O)O)CC[C@]3(C)[C@H](CCC4[C@@]5(C)CCC(=O)C(C)(C)C5C(O)C[C@]43C)C12 (stereo partly specified) ; HaCat; reported outcome was inactive

Test item O=C(O)C[C@H]1CCC(=O)[C@@H]1C/C=C\CCO ; HaCat; reported outcome was inactive

More entries:
Test item O=C(/C=C/c1ccc(O)cc1)OCC1OC(O)C(OC2OC(CO)C(O)C(O)C2O)C(O)C1O (stereo unspecified) ; HaCat; reported outcome was inactive

Test item CSC(=O)OCC1=C[C@@H]2OC(=O)C3=CO[C@@H](O[C@@H]4O[C@H](CO)[C@@H](O)[C@H](O)[C@H]4O)[C@H]1[C@@H]32 ; HaCat; reported outcome was inactive

Test item NC(=O)C(O[C@@H]1O[C@H](CO[C@@H]2O[C@H](CO)[C@@H](O)[C@H](O)[C@H]2O)[C@@H](O)[C@H](O)[C@H]1O)c1ccccc1 (stereo partly specified) ; HaCat; reported outcome was inactive

Test item COc1ccc2[nH]c(S(=O)Cc3ncc(C)c(OC)c3C)nc2c1 (stereo unspecified) ; HaCat; reported outcome was inactive

Test item O=C(O)c1ccnc(-c2cc(C(=O)NCCc3ccccc3)ccn2)c1 ; HaCat; reported outcome was inactive

Test item CC1CCCCCCCc2cc(O)cc(O)c2C(=O)O1 (stereo unspecified) ; HaCat; reported outcome was inactive
